Hi there, I'd appreciate the recorded Net charge at pH 7.5 for every entry that follows.
run.description: Net charge of peptide at pH 7.5 in physiological solution
Format: physicochemical
run.conditions: per peptide, pH 7.5, physiological solution
Answers are plain numbers.

// solved cases for Net charge at pH 7.5 follow
substance | Net charge at pH 7.5
QQR^+FQWQFE^-QQ (QQRFQWQFEQQ; self assembling peptide P11-2) | 0
QQQFQWQFE^-QQ (QQQFQWQFEQQ; self assembling peptide P11-21) | -1
QQQFE^-WE^-FE^±QQ (QQQFEWEFEQQ; self assembling peptide P11-22) | -3
CH3CO-E-Q-E-F-E-W-E-F-E-Q-E-HN2 (Ac-EQEFEWEFEQE-NH2) [Peptide P11-13] | -6

Below are some substances; for each one, tell me its Net charge at pH 7.5.
1. QQE^-FE^-WE^-FE^±QQ (QQEFEWEFEQQ; self assembling peptide P11-23)
2. CH3CO-Q-Q-R-F-E-W-E-F-E-Q-Q-NH2 (Ac-QQRFEWEFEQQ-NH2) [Peptide P11-4]

Reply text:
1: -4; 2: −2

The measured values listed here are drawn from patent US9630991B2.
